VALUE TYPE: EC50

INPUT: Give α1β3γ2 GABAA receptors (benzodiazepine site) (Homo sapiens, UniProt P14867+P18507+P28472) EC50 for CC(C)c1cc(CCCC2(C)N=N2)cc(C(C)C)c1O [Compound 6]
OUTPUT: ~500 nM

* * *

# EXPERIMENTAL TARGET: α1β3γ2 GABAA receptors (agonist site) (Homo sapiens, UniProt P14867+P18507+P28472)
# Sequence (P14867 28-456): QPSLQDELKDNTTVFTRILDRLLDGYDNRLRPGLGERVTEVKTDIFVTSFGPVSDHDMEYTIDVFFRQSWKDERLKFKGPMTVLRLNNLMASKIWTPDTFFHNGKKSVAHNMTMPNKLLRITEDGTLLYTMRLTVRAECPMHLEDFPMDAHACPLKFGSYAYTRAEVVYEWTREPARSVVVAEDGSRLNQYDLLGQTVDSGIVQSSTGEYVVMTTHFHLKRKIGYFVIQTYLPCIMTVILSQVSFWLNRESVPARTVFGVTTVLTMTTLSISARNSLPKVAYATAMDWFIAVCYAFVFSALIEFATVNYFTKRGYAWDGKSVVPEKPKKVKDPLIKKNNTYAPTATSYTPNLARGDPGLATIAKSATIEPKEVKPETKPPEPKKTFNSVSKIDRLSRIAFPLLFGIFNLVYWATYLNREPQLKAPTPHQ
# Sequence (P28472 26-473): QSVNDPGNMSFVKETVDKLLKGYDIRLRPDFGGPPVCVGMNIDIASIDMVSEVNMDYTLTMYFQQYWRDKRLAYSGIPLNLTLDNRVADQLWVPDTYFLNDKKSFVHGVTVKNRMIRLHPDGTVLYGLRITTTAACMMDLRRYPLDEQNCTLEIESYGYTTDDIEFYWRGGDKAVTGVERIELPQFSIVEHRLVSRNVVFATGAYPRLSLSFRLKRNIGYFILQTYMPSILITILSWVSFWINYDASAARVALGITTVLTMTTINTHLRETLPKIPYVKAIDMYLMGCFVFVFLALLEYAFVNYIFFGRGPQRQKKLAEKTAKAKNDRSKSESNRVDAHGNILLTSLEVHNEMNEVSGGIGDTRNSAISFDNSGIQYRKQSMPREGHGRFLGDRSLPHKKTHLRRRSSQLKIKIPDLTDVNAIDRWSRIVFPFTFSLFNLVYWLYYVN
# Sequence (P18507 40-475): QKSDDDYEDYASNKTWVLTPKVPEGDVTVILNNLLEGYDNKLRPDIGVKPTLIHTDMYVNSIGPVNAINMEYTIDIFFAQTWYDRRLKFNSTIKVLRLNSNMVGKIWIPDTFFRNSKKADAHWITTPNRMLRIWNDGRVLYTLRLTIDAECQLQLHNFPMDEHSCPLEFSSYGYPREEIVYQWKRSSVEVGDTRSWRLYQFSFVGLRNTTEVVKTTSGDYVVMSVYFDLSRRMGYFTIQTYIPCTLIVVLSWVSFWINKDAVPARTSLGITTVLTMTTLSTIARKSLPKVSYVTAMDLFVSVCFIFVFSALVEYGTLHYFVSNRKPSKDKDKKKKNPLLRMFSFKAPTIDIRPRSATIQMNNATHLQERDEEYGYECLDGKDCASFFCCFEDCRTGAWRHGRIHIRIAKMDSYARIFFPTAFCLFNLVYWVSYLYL
# PROTOCOL: Modulation of [3H]muscimol binding to GABAA receptor membranes from HEK293 cells
VALUE TYPE: EC50

INPUT: Quick check: EC50 of CC(C)c1cc(CCCC2(C)N=N2)cc(C(C)C)c1O [Compound 6] ?
OUTPUT: ~0.5 µM
